- target-or-system: T1, human EpCAM extracellular domain with C-terminal His tag (Novoprotein #C339) (human, UniProt P16422 24-265)
- T1 construct: extracellular domain; Bought protein
- T1 sequence (looked up): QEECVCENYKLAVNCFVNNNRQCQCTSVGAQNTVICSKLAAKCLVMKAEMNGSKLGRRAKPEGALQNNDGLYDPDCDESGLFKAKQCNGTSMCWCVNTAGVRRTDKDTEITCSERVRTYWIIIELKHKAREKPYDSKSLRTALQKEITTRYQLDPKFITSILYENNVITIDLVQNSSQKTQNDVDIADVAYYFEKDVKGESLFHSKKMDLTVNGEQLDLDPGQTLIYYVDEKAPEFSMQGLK
- experimental-details: ELISA on human EpCAM
assay-endpoint: binding result

[in] Fill in: binding result of mAb-30 (chimeric anti-EpCAM antibody) (antibody, V domains shown) VH: EVQLQQSGPELVKPGASVKISCKASGYTFTDYYMSWVKQSHGRSLEWIGEINPDNGDTSHNQKFKGKATMTVDKSSGTGNMEIRSLTSEDAGIYYCTSYFSYWGQGTLVTVSA VL: DVLMTQSPLSLPVSLGDQASISCRSSQSIVDSDGSTYLEWYLQKPGQSPKLLIYKVSNRFSGVPDRFSGSGSGTDFTLKISGVEAEDLGVYYCFQGSHVPYTFGGGTKLEIK is ___
[out] binds

[in] Fill in: binding result of mAb-37 (chimeric anti-EpCAM antibody) (antibody, V domains shown) VH: EVQLQQSVAELVRPGASVKLSCTASGFNIKNTYMHWVKQRPEQGLEWIGRIAPANGNTKYDPKFQDKATITADSSSNTAYLHLSSLTSEDTAIYYCAFIYQLPYWGQGSTLTVSS VL: DIVLTQSPTSLAVSLGQRATISCRASESVDNYGISFMHWYQQKPGQPPKLLIYRASSLESGIPARFSGSGSRTDFTLTINPVESDDVATYYCQQSYKDPWTFGGATKLEIK is ___
[out] binds

[in] Fill in: binding result of mAb-33 (chimeric anti-EpCAM antibody) (antibody, V domains shown) VH: EVLLQQSVADLVRPGASVKLSCTASGLNIKNTYIHWVKQMPEQGLEWIGRIGPANGNTKYAPKFQGKATITADTSSDTAYLQLSSLTSEDTAIYYCALAYYRIYWGQGTTLTVSS VL: DIVLTQSPASLAVSLGQRATISCRASESVDNSGISFMHWYQQKPGQSPKLLIYRASNLESGIPARFSGSGSRTDFTLTINPVETDDVATYYCQQSYENPWTFGGGTKLEIK is ___
[out] binds

These data points were gathered from patent US20230159663A1.
